measurement-target: human SMO D473H (Homo sapiens, UniProt Q99835, D473H)
Construct: expressed in transfected cells; host or cells: SMO knock-out mouse embryonic fibroblasts (MEF SMO-/-), BacMam transduction
Sequence (Q99835 28-787 D473H): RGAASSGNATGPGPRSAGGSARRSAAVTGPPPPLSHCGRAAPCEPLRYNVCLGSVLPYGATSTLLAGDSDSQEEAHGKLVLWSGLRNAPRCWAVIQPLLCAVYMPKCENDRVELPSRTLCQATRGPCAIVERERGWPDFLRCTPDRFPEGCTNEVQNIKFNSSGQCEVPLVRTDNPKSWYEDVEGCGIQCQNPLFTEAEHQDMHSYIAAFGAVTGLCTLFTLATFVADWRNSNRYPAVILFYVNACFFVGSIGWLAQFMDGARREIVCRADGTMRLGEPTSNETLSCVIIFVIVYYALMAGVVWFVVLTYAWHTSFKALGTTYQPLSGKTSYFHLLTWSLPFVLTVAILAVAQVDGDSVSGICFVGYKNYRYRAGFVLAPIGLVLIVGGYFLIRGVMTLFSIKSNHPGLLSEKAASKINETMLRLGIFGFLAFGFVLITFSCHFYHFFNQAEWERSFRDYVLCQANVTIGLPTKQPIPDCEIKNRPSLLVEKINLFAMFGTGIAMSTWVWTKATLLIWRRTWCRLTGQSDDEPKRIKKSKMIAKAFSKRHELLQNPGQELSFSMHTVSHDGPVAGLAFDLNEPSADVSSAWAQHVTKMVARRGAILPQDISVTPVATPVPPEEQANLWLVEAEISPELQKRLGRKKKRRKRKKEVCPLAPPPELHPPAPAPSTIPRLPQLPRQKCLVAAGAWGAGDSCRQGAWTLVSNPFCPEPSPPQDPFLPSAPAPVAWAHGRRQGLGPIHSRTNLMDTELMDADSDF
assay-procedure: Human assay: Gli1 qPCR in MEF SMO-/- cells BacMam-transduced with hSMO D473H variant; also: test concentration or dose not given here
Type: cell-based
experimental-setup: mSHh-treated, 24 hours, percentage Gli1 inhibition
Experimental: Cell culture. All materials were purchased from Sigma-Aldrich, unless otherwise stated. BacMam transduction and compound treatment. […] Cell lysis and one-step qPCR. […] Real-time PCR amplification was detected using the Bio-Rad CFX384 Touch PCR system. […] Real-time data were analysed using the CFX Maestro software (Bio-Rad) and obtained expression values were converted to percentage Gill inhibition by normalising to the average Gill expression of mSHh-treated control samples
endpoint-name: Human D473H % Inh (%)
Answer format: numeric, % implied, no suffix.

Inquiry: Tell me the measured Human D473H % Inh of `Cc1c(-c2ccc(NC(=O)c3ccc(Cl)c(CN4CCS(=O)(=O)CC4)c3)cc2)n[nH]c1C1CC1` , please.
Reply text: 111.1

Inquiry: Please give the measured Human D473H % Inh for this compound: `O=C(Nc1ccc(-c2nc(C3CC3)n[nH]2)cc1)c1cccc(CN2CCS(=O)(=O)CC2)c1`
Reply text: 77.2

Inquiry: Which value of Human D473H % Inh has been reported for `O=C(Nc1ccc(-c2nc(C3CC3)n[nH]2)cc1)c1cc(Cl)cc(CN2CCS(=O)(=O)CC2)c1` in the records?
Reply text: 76.5

Inquiry: I'd like to know its Human D473H % Inh. The compound in question is `Cc1c(-c2ccc(NC(=O)c3ccc(Cl)c(CN4CCS(=O)(=O)CC4)c3)cc2)nn(C)c1C1CC1`
Reply text: 111.9

Inquiry: // query Human D473H % Inh value for entry `O=C(Nc1ccc(-c2cc(C3CC3)n[nH]2)cc1)c1cccc(CN2CCS(=O)(=O)CC2)c1`
Reply text: 107.1

Inquiry: I have this compound here, `Cc1oc(-c2ccc(NC(=O)c3ccc(F)c(CN4CCS(=O)(=O)CC4)c3)cc2)nc1C1CC1` , and I need its recorded Human D473H % Inh.
Reply text: 103.2

Inquiry: Which Human D473H % Inh is reported for this compound? `O=C(Nc1ccc(-c2noc(Cc3ccc(F)cc3)n2)cc1)c1cccc(CN2CCS(=O)(=O)CC2)c1`
Reply text: 114.2

Inquiry: Endpoint output: Human D473H % Inh of `O=C(Nc1ccc(-c2nc(C3CCCC3)n[nH]2)cc1)c1cccc(CN2CCS(=O)(=O)CC2)c1` . Value?
Reply text: 88.3

Inquiry: Looking for the measured Human D473H % Inh of `Cc1oc(-c2ccc(NC(=O)c3cccc(CN4CCS(=O)(=O)CC4)c3)cc2)nc1C1CC1` , can you help?
Reply text: 104.2

====

measurement-target: mouse SMO^D473H (Mus musculus, UniProt P56726, D477H)
Construct: expressed in transfected cells
Sequence (P56726 33-793 D477H): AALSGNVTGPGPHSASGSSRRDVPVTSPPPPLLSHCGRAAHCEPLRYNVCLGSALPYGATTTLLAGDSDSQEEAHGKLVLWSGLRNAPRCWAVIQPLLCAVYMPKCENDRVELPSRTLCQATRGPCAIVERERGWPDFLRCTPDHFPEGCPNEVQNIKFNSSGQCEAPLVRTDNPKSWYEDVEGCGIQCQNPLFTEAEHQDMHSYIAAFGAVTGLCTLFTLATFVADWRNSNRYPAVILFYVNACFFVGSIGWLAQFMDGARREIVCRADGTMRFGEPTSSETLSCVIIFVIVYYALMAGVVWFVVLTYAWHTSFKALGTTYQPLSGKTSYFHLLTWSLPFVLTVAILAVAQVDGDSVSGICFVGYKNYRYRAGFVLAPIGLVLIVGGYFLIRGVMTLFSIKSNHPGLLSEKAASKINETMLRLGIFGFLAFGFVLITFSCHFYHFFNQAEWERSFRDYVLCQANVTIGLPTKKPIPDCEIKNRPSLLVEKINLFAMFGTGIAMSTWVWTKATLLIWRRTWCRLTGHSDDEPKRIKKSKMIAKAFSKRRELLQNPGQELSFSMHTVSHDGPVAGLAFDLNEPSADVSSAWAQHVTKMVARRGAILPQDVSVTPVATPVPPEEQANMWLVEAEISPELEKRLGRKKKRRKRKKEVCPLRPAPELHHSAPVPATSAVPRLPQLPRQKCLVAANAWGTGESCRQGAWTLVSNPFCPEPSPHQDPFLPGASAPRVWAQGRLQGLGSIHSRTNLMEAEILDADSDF
assay-procedure: Mouse assay: Gli1 qPCR in MEF cells stably expressing mouse SMO D473H
Type: cell-based
experimental-setup: mSHh-treated, 24 hours, Gli1 inhibition by qPCR, read-out: Mouse D473H pIC50 (converted)
Experimental: Cell culture. All materials were purchased from Sigma-Aldrich, unless otherwise stated. Compound treatment. […] Cell lysis and one-step qPCR. […] Real-time PCR amplification was detected using the Bio-Rad CFX384 Touch PCR system. […] Real-time data were analysed using the CFX Maestro software (Bio-Rad) and obtained expression values were converted to percentage Gli1 inhibition by normalising to the average Gli1 expression of mSHh-treated control samples.
endpoint-name: IC50 (nM)
Provide only the numeric value, understood in nM.

Inquiry: Form field - read-out: IC50; system: mouse SMO^D473H (Mus musculus, UniProt P56726, D477H); submitted item: `O=C(Nc1ccc(-c2nc(Cc3ccccc3F)n[nH]2)cc1)c1cccc(CN2CCS(=O)(=O)CC2)c1`
Reply text: 316

Inquiry: Query for mouse SMO^D473H (Mus musculus, UniProt P56726, D477H): what IC50 does the record show for `O=C(Nc1ccc(-c2nc(CCc3ccccc3)n[nH]2)cc1)c1cccc(CN2CCS(=O)(=O)CC2)c1` ?
Reply text: 251

Inquiry: Item `Cl.O=C(Nc1ccc(-c2nc(C3CC3)no2)cc1)c1cccc(CN2CCS(=O)(=O)CC2)c1` with mouse SMO^D473H (Mus musculus, UniProt P56726, D477H) - IC50?
Reply text: 158

Inquiry: Find the measured IC50: item `O=C(Nc1ccc(-c2cc(C3CC3)no2)cc1)c1cccc(CN2CCS(=O)(=O)CC2)c1` , target or system mouse SMO^D473H (Mus musculus, UniProt P56726, D477H).
Reply text: 79.4
